Assay: Stability in liver microsomes
Format: in vitro ADME
Conditions: pH 7.8; 2 μM peptidomimetic, human liver microsomes, 37° C.; read-out: half-life (t1/2) when incubated with liver microsomes
Protocol: Reactions were terminated by the addition of TFA/H2O (15 mL, 10% (v/v)). […] The column was equilibrated with TFA/H20, at a flow rate of 1 mL/min.
Non-standard residues stand in square brackets, D forms with d. Residues, ends and D or L forms follow the SMILES beside them. ξ: configuration not given here. ξBip(2'-Et-4'-OMe) = CCc1cc(OC)ccc1-c1ccc(CC(N)C(=O)O)cc1; ξNva(5-(3,5-Me2-Ph)) = Cc1cc(C)cc(CCCC(N)C(=O)O)c1
ENDPOINT_LABEL: half-life at 2 μM (min)

COMPOUND	READING_UNIT	MEASURED_VALUE
CCc1cc(OC)ccc1-c1ccc(CC(NC(=O)[C@H](CC(=O)O)NC(=O)[C@H](CO)NC(=O)[C@@H](NC(=O)[C@H](Cc2ccccc2)NC(=O)[C@@H](NC(=O)CNC(=O)C(CCC#N)NC(=O)C(C)(C)NC(=O)[C@@H](N)Cc2c[nH]cn2)[C@@H](C)O)[C@@H](C)O)C(=O)NC(CCCc2ccccc2Cl)C(N)=O)cc1 (single isomer, unassigned)	min	120
CCc1cc(OC)ccc1-c1ccc(CC(NC(=O)[C@H](CC(=O)O)NC(=O)[C@H](CO)NC(=O)[C@@H](NC(=O)C(C)(Cc2ccccc2F)NC(=O)[C@@H](NC(=O)CNC(=O)C(CCC#N)NC(=O)C(C)(C)NC(=O)[C@@H](N)Cc2c[nH]cn2)[C@H](C)O)[C@H](C)O)C(=O)NC(CCCc2ccccc2)C(N)=O)cc1 (single isomer, unassigned)	min	120
CCc1cc(OC)ccc1-c1ccc(CC(NC(=O)[C@H](CC(=O)O)NC(=O)[C@H](CO)NC(=O)[C@@H](NC(=O)[C@H](Cc2ccccc2)NC(=O)[C@@H](NC(=O)CNC(=O)C(CCC#N)NC(=O)C(C)(C)NC(=O)[C@@H](N)Cc2c[nH]cn2)[C@@H](C)O)[C@@H](C)O)C(=O)NC(CCCc2ccc(F)cc2F)C(N)=O)cc1 (single isomer, unassigned)	min	30
CCc1cc(OC)ccc1-c1ccc(CC(NC(=O)[C@H](CC(=O)O)NC(=O)[C@H](CO)NC(=O)[C@@H](NC(=O)C(C)(Cc2ccccc2F)NC(=O)[C@@H](NC(=O)CNC(=O)C(CCC#N)NC(=O)C(C)(C)NC(=O)[C@@H](N)Cc2c[nH]cn2)[C@H](C)O)[C@H](C)O)C(=S)NC(CCCc2ccccc2)C(N)=O)cc1 (single isomer, unassigned)	min	60
CCc1cc(OC)ccc1-c1ccc(CC(NC(=S)[C@H](CC(=O)O)NC(=O)[C@H](CO)NC(=O)[C@@H](NC(=O)C(C)(Cc2ccccc2F)NC(=O)[C@@H](NC(=O)CNC(=O)C(CCC#N)NC(=O)C(C)(C)NC(=O)[C@@H](N)Cc2c[nH]cn2)[C@H](C)O)[C@H](C)O)C(=S)NC(CCCc2ccccc2F)C(N)=O)cc1 (single isomer, unassigned)	min	120
CCc1cc(OC)ccc1-c1ccc(CC(NC(=O)[C@H](CC(=O)O)NC(=O)[C@H](CO)NC(=O)[C@@H](NC(=O)[C@H](Cc2ccccc2)NC(=O)[C@@H](NC(=O)CNC(=O)C(CCC#N)NC(=O)C(C)(C)NC(=O)[C@@H](N)Cc2c[nH]cn2)[C@@H](C)O)[C@@H](C)O)C(=O)NC(CCCc2ccc(F)cc2C(F)(F)F)C(N)=O)cc1 (single isomer, unassigned)	min	30
CCc1cc(OC)ccc1-c1ccc(CC(NC(=O)[C@H](CC(=O)O)NC(=O)[C@H](CO)NC(=O)[C@@H](NC(=O)[C@H](Cc2ccccc2)NC(=O)[C@@H](NC(=O)CNC(=O)[C@H](CCC(N)=O)NC(=O)[C@H](C)NC(=O)[C@@H](N)Cc2c[nH]cn2)[C@@H](C)O)[C@@H](C)O)C(=O)NC(CCCc2cc(C)cc(C)c2)C(N)=O)cc1 (some centres unmarked) [compound 14] (H-HAQGTFTSD[ξBip(2'-Et-4'-OMe)][ξNva(5-(3,5-Me2-Ph))]-NH2)	min	60
CCc1cc(OC)ccc1-c1ccc(CC(C(=O)N(C)C(CCCc2ccccc2F)C(N)=O)N(C)C(=O)[C@H](CC(=O)O)NC(=O)[C@H](CO)NC(=O)[C@@H](NC(=O)C(C)(Cc2ccccc2F)NC(=O)[C@@H](NC(=O)CNC(=O)C(CCC#N)NC(=O)C(C)(C)NC(=O)[C@@H](N)Cc2c[nH]cn2)[C@H](C)O)[C@H](C)O)cc1 (single isomer, unassigned)	min	60
CCc1cc(OC)ccc1-c1ccc(CC(NC(=O)[C@H](CC(=O)O)NC(=O)[C@H](CO)NC(=O)[C@@H](NC(=O)C(C)(Cc2ccccc2F)NC(=O)[C@@H](NC(=O)CNC(=O)C(CCC#N)NC(=O)C(C)(C)NC(=O)[C@H](Cc2c[nH]cn2)NC(=O)OC)[C@@H](C)O)[C@@H](C)O)C(=O)NC(CCCc2ccccc2F)C(N)=O)cc1 (single isomer, unassigned)	min	30
CCc1cc(OC)ccc1-c1ccc(CC(NC(=O)[C@H](CC(=O)O)NC(=O)[C@H](CO)NC(=O)[C@@H](NC(=O)[C@H](Cc2ccccc2)NC(=O)[C@@H](NC(=O)CNC(=O)[C@H](CCC(N)=O)NC(=O)C2(NC(=O)[C@@H](N)Cc3c[nH]cn3)CC2)[C@@H](C)O)[C@@H](C)O)C(=O)NC(CCCc2ccc(F)cc2F)C(N)=O)cc1 (single isomer, unassigned)	min	60
CCc1cc(OC)ccc1-c1ccc(CC(NC(=O)[C@H](CC(=O)O)NC(=O)[C@H](CO)NC(=O)[C@@H](NC(=O)C(C)(Cc2ccccc2F)NC(=O)[C@@H](NC(=O)CNC(=O)C(CCC#N)NC(=O)C(C)(C)NC(=O)[C@@H](N)Cc2c[nH]cn2)[C@H](C)O)[C@H](C)O)C(=S)NC(CCCc2ccccc2F)C(N)=O)cc1 (single isomer, unassigned)	min	60
